Each recorded value in this set is attributed to patent US12576099B2.

test: Characterization of lipid nanoparticles encapsulating Fluc-mRNA prepared from different cap structures; format: physicochemical; details: LNP with Fluc-mRNA transcribed using the named cap analog
reported.endpoint: PDI
Form field (numeric): enter value without unit.

compound	reported.endpoint	test.result
CO[C@@H]1[C@H](OP(=O)(O)OC[C@H]2O[C@@H](n3cnc4c(=O)[nH]c(N)nc43)[C@H](O)[C@@H]2O)[C@@H](COP(=O)(O)OP(=O)(O)OP(=O)(O)OC[C@H]2O[C@@H]([n+]3cn(C)c4c(=O)[nH]c(N)nc43)[C@H](O)[C@@H]2C(C)NC(C)=O)O[C@H]1n1cnc2c(N)ncnc21 (some centres unmarked)	PDI	0.023

Which PDI is reported for this compound? COC(C)[C@H]1[C@@H](O)[C@H]([n+]2cn(C)c3c(=O)[nH]c(N)nc32)O[C@@H]1COP(=O)(O)OP(=O)(O)OP(=O)(O)OC[C@H]1O[C@@H](n2cnc3c(N)ncnc32)[C@H](OC)[C@@H]1OP(=O)(O)OC[C@H]1O[C@@H](n2cnc3c(=O)[nH]c(N)nc32)[C@H](O)[C@@H]1O (some centres unmarked)
0.053

---

Target: DCP2 enzyme (Schizosaccharomyces pombe, UniProt O13828)
Construct: purchased New England Biolabs
Sequence (O13828 1-243 limits assumed): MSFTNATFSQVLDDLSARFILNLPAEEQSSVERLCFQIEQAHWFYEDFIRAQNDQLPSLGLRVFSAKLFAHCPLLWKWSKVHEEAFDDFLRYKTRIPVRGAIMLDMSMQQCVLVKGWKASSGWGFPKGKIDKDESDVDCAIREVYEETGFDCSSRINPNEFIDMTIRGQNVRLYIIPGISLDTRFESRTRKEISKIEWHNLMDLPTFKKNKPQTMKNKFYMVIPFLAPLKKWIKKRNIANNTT
Sequence (Q9P805 1-127 partner): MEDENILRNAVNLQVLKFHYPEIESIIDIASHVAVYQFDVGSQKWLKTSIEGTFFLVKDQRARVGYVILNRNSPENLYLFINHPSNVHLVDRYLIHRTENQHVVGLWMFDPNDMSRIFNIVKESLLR
Sequence (Q10108 155-180 partner limits assumed): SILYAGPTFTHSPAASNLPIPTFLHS
Experiment: Decapping enzyme stability test
Format: biochemical
Conditions: relative to N-7113
Label met for high-side Decrease relative to N-7113 (decapping rate) (at or above 30%) and not met for low-side Decrease relative to N-7113 (decapping rate) (below it).

Sample answers from the record:
molecule	label
CNc1ncnc2c1ncn2[C@@H]1O[C@H](COP(=O)(O)OP(=O)(O)OP(=O)(O)OC[C@H]2O[C@@H]([n+]3cn(C)c4c(=O)[nH]c(N)nc43)[C@H](O)[C@@H]2O)[C@@H](OP(=O)(O)OC[C@H]2O[C@@H](n3cnc4c(=O)[nH]c(N)nc43)[C@H](O)[C@@H]2O)[C@H]1OC [m6A, reference compound]	not met
COC[C@]1(COP(=O)(O)OP(=O)(O)OP(=O)(O)OC[C@H]2O[C@@H](n3cnc4c(N)ncnc43)[C@H](OC)[C@@H]2OP(=O)(O)OC[C@H]2O[C@@H](n3cnc4c(=O)[nH]c(N)nc43)[C@H](O)[C@@H]2O)O[C@@H]([n+]2cn(C)c3c(=O)[nH]c(N)nc32)[C@H](O)[C@@H]1O [YK-CAP-117]	met
COC1[C@H](n2cnc3c(N)ncnc32)O[C@H](COP(=O)(O)OP(=O)(O)OP(=O)(O)OC[C@@]23COC([C@H]([n+]4cn(C)c5c(=O)[nH]c(N)nc54)O2)[C@H]3O)[C@H]1OP(=O)(O)OCC1OC(n2cnc3c(=O)[nH]c(N)nc32)C(O)C1O (some centres unmarked) [Compound 14, reference compound]	not met
CO[C@@H]1[C@H](OP(=O)(O)OC[C@H]2O[C@@H](n3cnc4c(=O)[nH]c(N)nc43)[C@H](O)[C@@H]2O)[C@@H](COP(=O)(O)OP(=O)(O)OP(=O)(O)OC[C@H]2O[C@@H]([n+]3cn(C)c4c(=O)[nH]c(N)nc43)[C@H](O)[C@@H]2C(C)NC(C)=O)O[C@H]1n1cnc2c(N)ncnc21 (some centres unmarked) [YK-CAP-108]	not met

Here's the next entry for you.
Item CO[C@@H]1[C@H](OP(=O)(O)OC[C@H]2O[C@@H](n3cnc4c(=O)[nH]c(N)nc43)[C@H](O)[C@@H]2O)[C@@H](COP(=O)(O)OP(=O)(O)OP(=O)(O)OC[C@@]2(CF)O[C@@H]([n+]3cn(C)c4c(=O)[nH]c(N)nc43)[C@H](O)[C@@H]2O)O[C@H]1n1cnc2c(N)ncnc21 [YK-CAP-118] with Decrease relative to N-7113 (decapping rate) of 30% or above?
met

---

The following compounds are listed with their measured Total radiation intensity values.
test system: BALB/C mice; test: In vivo imaging of Fluc-mRNA LNP expression in mice; conditions: at 12 hours

Example entries begin here.
compound	reported.endpoint	test.result
CO[C@@H]1[C@H](OP(=O)(O)OC[C@H]2O[C@@H](n3cnc4c(=O)[nH]c(N)nc43)[C@H](O)[C@@H]2O)[C@@H](COP(=O)(O)OP(=O)(O)OP(=O)(O)OC[C@H]2OC([n+]3cn(C)c4c(=O)[nH]c(N)nc43)[C@H](O)[C@@H](O)[C@@H]2O)O[C@H]1n1cnc2c(N)ncnc21 (stereo partly drawn)	Total radiation intensity	0.96 ×10^8 p/s
CO[C@@H]1[C@H](OP(=O)(O)OC[C@H]2O[C@@H](n3cnc4c(=O)[nH]c(N)nc43)[C@H](O)[C@@H]2O)[C@@H](COP(=O)(O)OP(=O)(O)OP(=O)(O)OC[C@H]2O[C@@H]([n+]3cn(C)c4c(=O)[nH]c(N)nc43)[C@H](O)[C@@H]2C(F)F)O[C@H]1n1cnc2c(N)ncnc21	Total radiation intensity	10.55 ×10^8 p/s

Let us move to another entry and its Total radiation intensity.
Which Total radiation intensity is reported for this compound? CCN(CC)C(=O)[C@H]1[C@@H](O)[C@H]([n+]2cn(C)c3c(=O)[nH]c(N)nc32)O[C@@H]1COP(=O)(O)OP(=O)(O)OP(=O)(O)OC[C@H]1O[C@@H](n2cnc3c(N)ncnc32)[C@H](OC)[C@@H]1OP(=O)(O)OC[C@H]1O[C@@H](n2cnc3c(=O)[nH]c(N)nc32)[C@H](O)[C@@H]1O
9.34 ×10^8 p/s

---

biological target: T7 RNA polymerase (Escherichia phage T7, UniProt P00573); assay: Capping rate of mRNA transcription initiated by cap analogs (LC-MS); format: biochemical; conditions: relative to 5227
Sequence (P00573 whole entry): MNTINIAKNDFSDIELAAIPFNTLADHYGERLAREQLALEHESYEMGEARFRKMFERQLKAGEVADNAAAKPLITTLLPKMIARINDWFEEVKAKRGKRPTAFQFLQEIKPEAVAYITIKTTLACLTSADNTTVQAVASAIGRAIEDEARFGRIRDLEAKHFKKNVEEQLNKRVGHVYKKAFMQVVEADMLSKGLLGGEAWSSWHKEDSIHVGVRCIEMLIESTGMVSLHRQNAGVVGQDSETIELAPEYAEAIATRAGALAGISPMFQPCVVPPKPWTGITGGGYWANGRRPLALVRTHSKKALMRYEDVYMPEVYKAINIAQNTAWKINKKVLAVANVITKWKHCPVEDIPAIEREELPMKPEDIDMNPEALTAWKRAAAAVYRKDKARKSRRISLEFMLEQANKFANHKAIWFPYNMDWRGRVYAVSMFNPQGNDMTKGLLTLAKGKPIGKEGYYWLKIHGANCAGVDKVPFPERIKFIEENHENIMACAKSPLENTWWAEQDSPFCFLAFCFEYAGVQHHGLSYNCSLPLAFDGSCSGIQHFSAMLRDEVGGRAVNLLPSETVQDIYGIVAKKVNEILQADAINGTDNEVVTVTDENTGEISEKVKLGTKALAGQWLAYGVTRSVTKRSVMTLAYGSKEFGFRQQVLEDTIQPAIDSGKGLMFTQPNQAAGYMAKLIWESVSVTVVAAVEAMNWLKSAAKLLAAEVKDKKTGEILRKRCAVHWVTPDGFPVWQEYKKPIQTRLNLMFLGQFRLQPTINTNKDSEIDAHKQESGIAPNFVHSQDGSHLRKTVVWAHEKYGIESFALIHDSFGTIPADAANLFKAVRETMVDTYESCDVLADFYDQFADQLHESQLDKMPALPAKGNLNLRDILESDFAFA
reported.endpoint: Increase relative to 5227 (capping rate)
Value and unit, in that order.

compound	Increase relative to 5227 (capping rate)
CO[C@@H]1[C@H](OP(=O)(O)OC[C@H]2O[C@@H](n3cnc4c(=O)[nH]c(N)nc43)[C@H](O)[C@@H]2O)[C@@H](COP(=O)(O)OP(=O)(O)OP(=O)(O)OC[C@H]2O[C@@H]([n+]3cn(C)c4c(=O)[nH]c(N)nc43)[C@H](O)[C@]2(C)NC(C)=O)O[C@H]1n1cnc2c(N)ncnc21 [YK-CAP-106]	32.5%

Which Increase relative to 5227 (capping rate) is reported for this compound? CO[C@@H]1[C@H](OP(=O)(O)OC[C@H]2O[C@@H](n3cnc4c(=O)[nH]c(N)nc43)[C@H](O)[C@@H]2O)[C@@H](COP(=O)(O)OP(=O)(O)OP(=O)(O)OC[C@@]2(OC)O[C@@H]([n+]3cn(C)c4c(=O)[nH]c(N)nc43)[C@H](O)[C@@H]2O)O[C@H]1n1cnc2c(N)ncnc21 [compound 5227, reference compound]
0%

Follow-up item: CO[C@@H]1[C@H](OP(=O)(O)OC[C@H]2O[C@@H](n3cnc4c(=O)[nH]c(N)nc43)[C@H](O)[C@@H]2O)[C@@H](COP(=O)(O)OP(=O)(O)OP(=O)(O)OC[C@H]2O[C@@H]([n+]3cn(C)c4c(=O)[nH]c(N)nc43)[C@H](O)[C@@H]2C(C)F)O[C@H]1n1cnc2c(N)ncnc21 (stereo partly drawn) [YK-CAP-109]
32.4%

---

The following compounds are listed with their measured Decapping rate (%) of DCP2 enzyme values.
target: DCP2 enzyme (Schizosaccharomyces pombe); construct: purchased New England Biolabs; test: Decapping enzyme stability test; type: biochemical; settings: 50 U mRNA decapping enzyme, 37° C., 45 minutes
Write the answer as a number in %, unit excluded.

Example entries begin here.
compound	test.result
COC[C@]1(COP(=O)(O)OP(=O)(O)OP(=O)(O)OC[C@H]2O[C@@H](n3cnc4c(N)ncnc43)[C@H](OC)[C@@H]2OP(=O)(O)OC[C@H]2O[C@@H](n3cnc4c(=O)[nH]c(N)nc43)[C@H](O)[C@@H]2O)O[C@@H]([n+]2cn(C)c3c(=O)[nH]c(N)nc32)[C@H](O)[C@@H]1O [YK-CAP-117]	9.8
CO[C@@H]1[C@H](OP(=O)(O)OC[C@H]2O[C@@H](n3cnc4c(=O)[nH]c(N)nc43)[C@H](O)[C@@H]2O)[C@@H](COP(=O)(O)OP(=O)(O)OP(=O)(O)OC[C@H]2O[C@@H]([n+]3cn(C)c4c(=O)[nH]c(N)nc43)[C@H](O)[C@@H]2C(C)F)O[C@H]1n1cnc2c(N)ncnc21 (stereo partly drawn) [YK-CAP-109]	17.3

Let us move to another entry and its Decapping rate (%) of DCP2 enzyme.
Which Decapping rate (%) of DCP2 enzyme is reported for this compound? COC1[C@H](n2cnc3c(N)ncnc32)O[C@H](COP(=O)(O)OP(=O)(O)OP(=O)(O)OC[C@@]23COC([C@H]([n+]4cn(C)c5c(=O)[nH]c(N)nc54)O2)[C@H]3O)[C@H]1OP(=O)(O)OCC1OC(n2cnc3c(=O)[nH]c(N)nc32)C(O)C1O (stereo partly drawn) [Compound 14, reference compound]
26.8
